Overview of recorded Tmax for various compounds
assay: Tmax in Sprague-Dawley rat at 25 mg/kg, IG measured at 5 to 2880 mins by LC-MS/MS analysis; type: ADME, organism-based; conditions: in vivo, po, time 5-2880 min
Express the result in h but write the number alone.

>  <smiles_data>
CN1C(=O)[C@@H](NC(=O)c2cc3cccc(-c4ccccc4)c3[nH]2)COc2ccccc21

>  <experimental_readout>
Tmax

>  <unit_annotation>
h

>  <observed_measurement>
6

$$$$

Turning now to a further record.
Given the entry CN1C(=O)[C@@H](NC(=O)c2ccc3[nH]cc(-c4ccccc4)c3c2)COc2ccccc21 , report its measured Tmax.
2

---

experiment: AUC (0 to infinity) in Sprague-Dawley rat at 5 mg/kg, iv measured at 5 to 2880 mins by LC-MS/MS analysis; format: ADME, organism-based; settings: in vivo, time 5-2880 min
experimental_readout: AUC(0-inf)

>  <smiles_data>
CN1C(=O)[C@@H](NC(=O)c2cc3cccc(-c4ccccc4)c3[nH]2)COc2ccccc21

>  <AUC(0-inf)>
13700 ng·h/mL

$$$$

# input molecule: CN1C(=O)[C@@H](NC(=O)c2ccc3[nH]cc(-c4ccccc4)c3c2)COc2ccccc21 ; wanted: its AUC(0-inf)
10300 ng·h/mL

---

test: Metabolic stability in rat liver microsome assessed as half life preincubated with compound for 60 mins followed by NADPH addition and measured after 60 mins by LC-MS/MS analysis; assay type: ADME; settings: liver microsomes, time 120 min
experimental_readout: half-life (min)
Give the value in min but do not write min after it.

>  <smiles_data>
CN1C(=O)[C@@H](NC(=O)c2cc3cccc(-c4ccccc4)c3[nH]2)COc2ccccc21

>  <observed_measurement>
10.6

$$$$

Turning to the following compound.
Param item = CN1C(=O)[C@@H](NC(=O)c2ccc3[nH]cc(-c4ccccc4)c3c2)COc2ccccc21 ; retrieve measured half-life.
12.7

---

experiment: Half life in Sprague-Dawley rat at 25 mg/kg, IG measured at 5 to 2880 mins by LC-MS/MS analysis; type: ADME, organism-based; conditions: in vivo, po, time 5-2880 min
Recorded half-life by entry
Give the value, in units of h, as a plain number.

>  <smiles_data>
CN1C(=O)[C@@H](NC(=O)c2ccc3[nH]cc(-c4ccccc4)c3c2)COc2ccccc21

>  <observed_measurement>
32

$$$$

Now turn to the next compound.
Please give the measured half-life for this compound: CN1C(=O)[C@@H](NC(=O)c2cc3cccc(-c4ccccc4)c3[nH]2)COc2ccccc21
6.11

---

Item-by-item account of half-life
test: Metabolic stability in dog liver microsome assessed as half life preincubated with compound for 60 mins followed by NADPH addition and measured after 60 mins by LC-MS/MS analysis; type: ADME, Canis lupus familiaris; details: liver microsomes, time 120 min
Record the value in min, omitting the unit from your answer.

>  <smiles_data>
CN1C(=O)[C@@H](NC(=O)c2ccc3[nH]cc(-c4ccccc4)c3c2)COc2ccccc21

>  <half-life / min>
42

$$$$

// moving on: another record for half-life
Look up half-life: CN1C(=O)[C@@H](NC(=O)c2cc3cccc(-c4ccccc4)c3[nH]2)COc2ccccc21
44.7

---

// values below are reported AUC(0-inf)
assay: AUC (0 to infinity) in Sprague-Dawley rat at 25 mg/kg, IG measured at 5 to 2880 mins by LC-MS/MS analysis; type: ADME, organism-based; details: in vivo, po, time 5-2880 min
// units = ng·h/mL; emit number, no label

>  <smiles_data>
CN1C(=O)[C@@H](NC(=O)c2ccc3[nH]cc(-c4ccccc4)c3c2)COc2ccccc21

>  <AUC(0-inf) (ng·h/mL)>
32600

$$$$

Next, consider the following compound.
Entry under review: CN1C(=O)[C@@H](NC(=O)c2cc3cccc(-c4ccccc4)c3[nH]2)COc2ccccc21 . Reported AUC(0-inf)?
25300
